Numbers sourced from PubChem BioAssay (NCI).

What TGI was measured for each of the following?
# Test system: HOP-92 NSCLC
# assay_explanation: NCI tumour cell line growth inhibition, 48 h

Example molecules with recorded TGI:
COc1ccc(OC)c(-c2cc(-c3ccc(Cl)cc3)nn2-c2ccccc2)c1	> 100 µM
COC(=O)C(/C(=N/N)C(=O)Nc1cc(Cl)ccc1Cl)c1nc2ccc([N+](=O)[O-])cc2[nH]c1=O (stereo not drawn)	> 100 µM

Lookup: TGI / HOP-92 NSCLC / CC(C)(C)n1[nH]c(=O)n(C(C)(C)C)c1=O > 100 µM

----------
# System: SF-539 CNS
# assay_explanation: NCI tumour cell line growth inhibition, 48 h
Record form. Attribute: TGI. Fill in for each entry.

# annotated cases, reported TGI shown
COc1ccc(Cc2ccc3[nH]c(=O)cc(C)c3c2)cc1S(=O)(=O)O	> 100 µM
CN1CCN(c2ccncc2S(=O)(=O)N2CCN(C)CC2)CC1	> 100 µM

Switching to the query record.
I am curious: what TGI value has been reported for Cc1ccc([N+](=O)[O-])cc1NC(=O)C(=O)Cc1nc2ccc(C(=O)c3ccccc3)cc2[nH]c1=O ? > 100 µM

----------
# Test system: EKVX NSCLC
# assay_explanation: NCI tumour cell line growth inhibition, 48 h
measured_quantity: TGI

COC(Cc1cc(C(O)(c2ccc(C(C)(C)C)cc2)c2cc(CC(OC)(c3cc(C(OC)(c4ccc(C(C)(C)C)cc4)c4ccc(C(C)(C)C)cc4)c(C)cc3C)c3cc(C(OC)(c4ccc(C(C)(C)C)cc4)c4ccc(C(C)(C)C)cc4)c(C)cc3C)c(C)cc2C)c(C)cc1C)(c1cc(C(OC)(c2ccc(C(C)(C)C)cc2)c2ccc(C(C)(C)C)cc2)c(C)cc1C)c1cc(C(OC)(c2ccc(C(C)(C)C)cc2)c2ccc(C(C)(C)C)cc2)c(C)cc1C	> 75 µM
CN(CCO)CCC1COc2ccccc2O1 (stereo not drawn)	> 10 µM

TGI for N#C[S-].[Ce+3].c1ccc(-c2ccccn2)nc1.c1ccc(-c2ccccn2)nc1.c1ccc(-c2ccccn2)nc1 ? > 100 µM

----------
# Tested on: CCRF-CEM leukemia
# assay_explanation: NCI tumour cell line growth inhibition, 48 h
Kindly supply the reported GI50 values for the records listed here.

Check out these entries, answers already filled in.
O=C(N/N=C\c1ccc(N(CCCl)CCCl)cc1)c1cccnc1	5.91 µM
C[C@]1(c2nc3c(C(N)=O)cccc3[nH]2)CCCN1	> 100 µM
CCCCNC(=O)Oc1ccc(/C(=C(\C)c2ccc(OC)cc2)c2ccc(OCCN3CCCCC3)cc2)cc1	2.81 µM
C[C@]12CC[C@@H]3c4ccc(O)cc4CC[C@H]3[C@@H]1CC(Cc1ccccc1)(Cc1ccccc1)C2=O	14.3 µM
C=C[C@@H]1CCC/C=C/[C@@H]2C[C@H](O)C[C@H]2[C@H](O)/C=C/C(=O)O1	2.42 µM
N#Cc1c(N)c(C(=O)c2ccc3c(c2)OCCO3)n2c1CCCC2	3.15 µM

Could you now consider this next molecule?
GET /values?readout=GI50&item= CCC(CO)Nc1nc(NCc2ccccc2)c2n[nH]c(C(C)C)c2n1 (configuration not stated) 6.55 µM

----------
Would you mind telling me the reported TGI of each entry?
# Test system: A549 NSCLC
# assay_explanation: NCI tumour cell line growth inhibition, 48 h

// below: answered compounds
CN1C(c2ccccc2)CC(=NO)CC1c1ccccc1 (stereo unspecified)	> 100 µM
CCCC[n+]1ccn(-c2nc3ccccc3n2C)c1	> 100 µM
Cc1ccc(N2C=Nn3c(nc4sc5c(c4c3=O)CCCC5)C2)cc1	> 100 µM

Lab note: each compound below needs its TGI filled in.
1. N#Cc1c(N)c(C(=O)c2ccc3c(c2)OCCO3)n2c1CCCC2
2. COc1ccc(Cc2ccc3[nH]c(=O)cc(C)c3c2)cc1S(=O)(=O)O

> 100 µM
> 100 µM

Using the record for C/C1=C\[C@@H](C)C[C@@H](C)OC(=O)[C@@H](C)NC(=O)[C@H](Cc2ccc(O)c(Br)c2)N(C)C(=O)CNC(=O)[C@H](C)C1 , report its TGI. > 100 µM

----------
# Test system: MOLT-4 leukemia
# assay_explanation: NCI tumour cell line growth inhibition, 48 h
measured_quantity: TGI

Need TGI for each of these molecules.
1. CCCC(=O)Oc1ccc(/C=N/NC(N)=S)nc1
2. CC1=NC(C)=C(/C(C)=N/NC(=O)c2ccccc2O)C(C)/C1=C(/C)NNC(=O)c1ccccc1O (configuration not stated)
3. Cc1ccccc1SC(/C=C/NNC1=NC(c2ccccc2)C(c2ccccc2)=NN1)c1ccccc1 (configuration not stated)
4. NC(CCl)=NCC12CC3CC(CC(C3)C1)C2

["> 100 µM", "23.8 µM", "> 100 µM", "1.73 µM"]

Hi team, please reply with TGI for each item in this list.
1. CC(C)(C)OC(=O)NCC(c1c[nH]c2cc(Br)ccc12)c1c[nH]c2cc(Br)ccc12
2. OC(c1cc2ccccc2[nH]1)C(O)(c1cc2ccccc2[nH]1)c1cc2ccccc2[nH]1 (configuration not stated)
3. COC1CC(O[C@H]2CC[C@@]3(C)C(=CCC4(O)C3CCC35C(=O)OC6(C)O[C@@]43CCC65)C2)OC(C)C1O (some centres not stated)

1. > 100 µM
2. > 245 µM
3. > 100 µM

----------
# Test system: OVCAR-3 ovarian
# assay_explanation: NCI tumour cell line growth inhibition, 48 h
Please provide measured GI50 for the entries that follow.

Below are worked cases with known answers.
C[N+]1(CCNP(=S)(NCC[N+]2(C)Cc3c(ccc4c3OCO4)C3C2c2cc4c(cc2C[C@@H]3O)OCO4)NCC[N+]2(C)Cc3c(ccc4c3OCO4)C3C2c2cc4c(cc2C[C@@H]3O)OCO4)Cc2c(ccc3c2OCO3)C2C1c1cc3c(cc1C[C@H]2O)OCO3 (stereo partly drawn)	1680 nM
Oc1c(CN2CCCCC2)ccc2cccnc12	2410 nM

Now for the compound whose GI50 we want.
Please report the recorded GI50 for COc1ccc2c(c1)C(=O)/C(=C/c1ccc(O)cc1)O2 . 2280 nM

----------
# System: SK-OV-3 ovarian
# assay_explanation: NCI tumour cell line growth inhibition, 48 h
measured_quantity: TGI

COc1ccc2nc(N/N=C/c3ccc(C)s3)cc(C)c2c1	45 µM
[Mn+3].[O-][Cl+3]([O-])([O-])O.[O-]c1ccccc1C=NCCN1CC1.[O-]c1ccccc1C=NCCN1CC1	> 100 µM
Clc1ccc(-c2nnc(-c3nn(-c4ccccc4)c4nc5ccccc5nc34)o2)cc1	> 100 µM
Cc1cn(C(CO)OC(CO)CN(O)C2C3CC4CC(C3)CC2C4)c(=O)[nH]c1=O (stereo unspecified)	> 100 µM
CC1(C)CC[C@]2(C)[C@@H](O)C[C@]3(C)C(=CC[C@@H]4[C@@]5(C)CC[C@H](O)C(C)(C)[C@@H]5CC[C@]43C)[C@@H]2C1	40.7 µM
COC(=O)[C@@H](C)C[C@H](Cc1ccc(F)cc1)NC(=O)c1csc([C@@H](C[C@H](C(C)C)N(C)C(=O)[C@@H](NC(=O)[C@H]2CCCCN2C)C2CC2)OC(C)=O)n1	> 25 µM

Give one value of TGI per listed molecule.
1. CCCCN(C)CC(C(C)=O)C(c1ccccc1)c1c(O)c2ccccc2oc1=O (stereo unspecified)
2. Brc1ccc2nc(-c3cccs3)nc(N3CCN(c4ccccc4)CC3)c2c1
3. O=C(O)C(Cc1ccccc1)N=Cc1nc(-c2ccccc2)oc1O (stereo unspecified)

1: > 100 µM; 2: > 100 µM; 3: > 100 µM

# return TGI for each item in the list
1. NC1=Nc2ccccc2Sc2nccn21
2. FC(F)(F)c1cccc(Oc2ccc(Nc3ncnc4ccc(OCCCN5CCOCC5)cc34)cc2Cl)c1
3. CN1/C(=C\N=O)C(C)(C)N(O)C1(C)C
4. O=S(=O)(O)c1ccc(N=Nc2ccc(N=Nc3c(O)ccc4ccc(S(=O)(=O)O)cc34)cc2)cc1
5. Cc1ccc(F)c2[nH]c(-c3ccccc3)cc(=O)c12

1: > 100 µM; 2: 15.5 µM; 3: > 100 µM; 4: > 100 µM; 5: > 100 µM

# per-item lookup of TGI; items listed below
1. CC1(C)C(CBr)=[N+]([O-])C(C)(C)N1O
2. CCCCC1Nc2ccccc2-c2ccnc(Cl)c21 (stereo unspecified)

["> 10 µM", "55.7 µM"]

----------
# Tested on: SF-268 CNS
# assay_explanation: NCI tumour cell line growth inhibition, 48 h
Assign TGI to each entry below.

CCCCN(C)CC(C(C)=O)C(c1ccccc1)c1c(O)c2ccccc2oc1=O (configuration not stated)	> 100 µM
COc1cc(/C=C2\N=C(c3ccccc3)N(c3nc4ccccc4s3)C2=O)cc(OC)c1OC	> 100 µM
NC1=C(O)/C(=N/NS(=O)(=O)c2ccccc2)C(c2ccc3c(c2)OCO3)O1 (configuration not stated)	> 100 µM

List reported TGI for each of these molecules:
1. O=C([O-])c1ccccc1Nc1ccccc1C(=O)[O-].[OH3+].[Zn+2]
2. Cc1nc(-c2cccnc2)sc1C(=O)CC(=O)C(=O)Nc1cccc(NC(=O)C(=O)CC(=O)c2sc(-c3cccnc3)nc2C)n1
3. C/C=C(\C)C(=O)OC1C2C(C)=CC(=O)C(O)C2(C)C2C3(O)OCC24C1OC(=O)C(OC(C)=O)C4C(C)C3O (configuration not stated)
4. Cc1ccc(NC(=O)C(=O)C2C(=O)NC(=O)NC2=O)c(C)c1

1. 40.2 µM
2. > 100 µM
3. 0.0887 µM
4. > 100 µM

Consider the following items and state reported TGI for each.
1. Clc1ccc(-c2nnc(-c3nn(-c4ccccc4)c4nc5ccccc5nc34)o2)cc1
2. CCCCNC(=O)Oc1ccc(/C(=C(\C)c2ccc(OC)cc2)c2ccc(OCCN3CCCCC3)cc2)cc1
3. CCCNC(=O)Cn1c2c(c3ccccc31)CCCC2
4. Cc1cc(C)n(CN(CCCCO)Cn2nc(C)cc2C)n1

["> 100 µM", "20.5 µM", "> 100 µM", "65.2 µM"]

Consider the molecule OCC1CC2C=CCC(C2)C1 (configuration not stated) and give its measured TGI. > 100 µM
